experiment: Selectivity index, ratio of IC50 for African green monkey Vero cells to IC50 for Trypanosoma cruzi Tulahuen 2 epimastigotes; format: toxicity, cell-based; details: read-out: Ratio IC50
Answer each item with its documented selectivity ratio.
Simply state the number, no unit and no words.

The molecule listed as O=C(c1ccc(F)cc1)c1c(C(F)(F)F)[n+]([O-])c2cc(F)c(F)cc2[n+]1[O-] has a reported selectivity ratio of 5

The molecule listed as CC(=O)c1c(C(F)(F)F)[n+]([O-])c2cc(N3CCCCC3)c(N3CCCCC3)cc2[n+]1[O-] has a reported selectivity ratio of 1.7

The molecule listed as CC(=O)c1c(C(F)(F)F)[n+]([O-])c2cc(F)c(N3CCCCC3)cc2[n+]1[O-] has a reported selectivity ratio of 5.8

The molecule listed as O=C(c1ccc(F)cc1)c1c(C(F)(F)F)[n+]([O-])c2ccc(F)cc2[n+]1[O-] has a reported selectivity ratio of 4

The molecule listed as O=C(c1ccco1)c1c(C(F)(F)F)nc2cc(Cl)c(N3CCOCC3)cc2[n+]1[O-] has a reported selectivity ratio of 37.6
